biological target: human enzyme NAMPT (full length) (Homo sapiens); construct: human enzyme NAMPT (full length); test: NMN fluorescence biochemical assay (stimulation of NMN synthesis by NAMPT); details: fold change of maximal activation compared to DMSO
Sequence (P43490 whole entry): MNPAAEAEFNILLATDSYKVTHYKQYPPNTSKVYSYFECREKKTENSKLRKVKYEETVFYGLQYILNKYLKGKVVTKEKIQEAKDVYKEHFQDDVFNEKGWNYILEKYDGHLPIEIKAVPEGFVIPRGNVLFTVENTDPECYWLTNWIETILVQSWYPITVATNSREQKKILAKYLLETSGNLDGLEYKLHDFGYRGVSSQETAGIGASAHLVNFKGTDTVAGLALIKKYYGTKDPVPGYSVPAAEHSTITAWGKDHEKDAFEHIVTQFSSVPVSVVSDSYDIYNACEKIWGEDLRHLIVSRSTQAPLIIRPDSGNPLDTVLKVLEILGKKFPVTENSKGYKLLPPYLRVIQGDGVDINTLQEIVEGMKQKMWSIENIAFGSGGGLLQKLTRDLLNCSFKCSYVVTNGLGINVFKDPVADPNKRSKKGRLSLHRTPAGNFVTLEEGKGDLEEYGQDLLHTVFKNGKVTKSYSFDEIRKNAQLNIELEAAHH
propertyName: Enzymatic Emax

1) O=C1c2ncccc2CN1Cc1ccc(O)cc1 :: B (3≥B>2)
2) Cn1ncc(Cl)c1CC1c2ccccc2C(C)(C)N1Cc1ccc2[nH]nnc2c1 (stereo not shown) :: A (A>3)
3) Cn1ncc(Cl)c1CC1c2cc(Br)ccc2C(=O)N1CC1CC2(CNC(=O)O2)C1 (stereo not shown) :: A (A>3)
4) CC(c1ccc(O)cc1)N1Cc2ccccc2C1=O (stereo not shown) :: B (3≥B>2)

---

target: human enzyme NAMPT (full length) (Homo sapiens); construct: human enzyme NAMPT (full length); assay: NMN fluorescence biochemical assay (stimulation of NMN synthesis by NAMPT); conditions: NMN fluorescence assay, purified human NAMPT 100 nM; concentration giving half-maximal activation; read-out: Enzymatic EC50
Task for the reader: assign each of the following molecules its reported EC50.

Worked cases, EC50 given:
1) Cn1ncc(Cl)c1CC1c2ccccc2C(=O)N1Cc1cc(=O)[nH]o1 (stereo not drawn) [Compound 602] :: ≥ 5 µM
2) Cn1ncc(Cl)c1CC1c2cccc(Cl)c2C(=O)N1Cc1ccc2[nH]nnc2c1 (stereo not drawn) [Compound 336] :: < 0.5 µM
3) Cc1noc(Cl)c1CC1c2ccccc2C(=O)N1Cc1ccc2[nH]nnc2c1 (stereo not drawn) [Compound 357] :: 0.5 to 5 µM
4) Cn1ncc(Cl)c1CC1c2ccccc2C(=O)N1Cc1ccc2c(cnn2C)c1 (stereo not drawn) [Compound 586] :: ≥ 5 µM
5) COc1ccc(CN2C(=O)c3ccc(OC(F)F)cc3C2Cc2c(Cl)cnn2C)cn1 (stereo not drawn) [Compound 619] :: ≥ 5 µM

# return EC50 for each item in the list
1. Cn1nc(C2CC2)c(Cl)c1CC1c2ccccc2C(=O)N1Cc1ccc2[nH]nnc2c1 (stereo not drawn) [Compound 399]
2. COc1ccc(CN2C(=O)c3ccc(C4CC4)cc3C2Cc2c(Cl)cnn2C)cn1 (stereo not drawn) [Compound 623]
3. O=C1c2ccccc2C(Cc2ncccc2Br)N1Cc1ccn2c(CO)nnc2c1 (stereo not drawn) [Compound 323]

1: < 0.5 µM; 2: ≥ 5 µM; 3: ≥ 5 µM

Report EC50 for Cn1c(CC2c3ccccc3C(=O)N2CC2CC3(CNC(=O)O3)C2)cccc1=O (stereo not drawn) [Compound 494] tested on human enzyme NAMPT (full length) (Homo sapiens).
≥ 5 µM

---

target: human enzyme NAMPT (full length) (Homo sapiens); construct: human enzyme NAMPT (full length); experiment: NMN fluorescence biochemical assay (stimulation of NMN synthesis by NAMPT); conditions: NMN fluorescence assay, purified human NAMPT 100 nM; concentration giving half-maximal activation; read-out: Enzymatic EC50
pEC50: −log10 of the molar value.
Would you mind telling me the reported pEC50 of each entry?

Consider the worked cases shown below.
1. Cn1ncc(Cl)c1CC1c2ccccc2C(=O)N1Cc1ccc2ocnc2c1 (stereo not shown) [Compound 561] :: ≤ 5.30
2. Cc1nc2cc(CN3C(=O)c4ccccc4C3Cc3ncccc3Br)ccc2[nH]1 (stereo not shown) [Compound 358] :: 5.30 to 6.30

Provide pEC50 for all items below, preserving their order.
1. Cc1nn(C)c(CC2c3ccccc3C(=O)N2Cc2ccc3[nH]nnc3c2)c1Cl (stereo not shown) [Compound 337]
2. O=C1c2ccccc2C(Cc2nc(Br)sc2Cl)N1Cc1ccc2[nH]nnc2c1 (stereo not shown) [Compound 448]
3. Cc1ccc(CN2C(=O)c3ccccc3C2Cc2c(Cl)cnn2C)cc1 (stereo not shown) [Compound 503]

1. > 6.30
2. > 6.30
3. ≤ 5.30

Parameters: items (list). Returns: pEC50 for each item.
1. O=C1c2ccccc2C(Cc2ncccc2Br)N1CCc1cn[nH]c1 (stereo not shown) [Compound 475]
2. Cn1ncc(Cl)c1CC1c2cc(C(C)(C)O)ccc2C(=O)N1Cc1ccc2[nH]nnc2c1 (stereo not shown) [Compound 382]

["5.30 to 6.30", "5.30 to 6.30"]
